Examples of binders with documented kon follow.
target: T1, human CTGF (antigen of the Biacore assays) (human, UniProt P29279 27-349)
T1 construct: also called antigen human CTGF; human CTGF protein
T1 sequence (looked up): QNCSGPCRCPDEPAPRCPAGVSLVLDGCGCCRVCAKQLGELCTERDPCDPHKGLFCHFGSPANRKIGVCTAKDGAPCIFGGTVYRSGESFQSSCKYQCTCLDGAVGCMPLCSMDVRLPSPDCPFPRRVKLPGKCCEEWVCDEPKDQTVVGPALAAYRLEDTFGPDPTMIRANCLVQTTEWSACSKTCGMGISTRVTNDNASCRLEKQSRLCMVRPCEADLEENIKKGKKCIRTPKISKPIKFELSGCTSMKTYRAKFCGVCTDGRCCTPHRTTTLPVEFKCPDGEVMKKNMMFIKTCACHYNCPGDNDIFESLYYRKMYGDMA
assay.explanation: Biacore, antibody captured on Protein A, CTGF in flow, 1:1 fit

{"binder": "Hu147-31wk (antibody, human IgG1, kappa, V domains shown) VH: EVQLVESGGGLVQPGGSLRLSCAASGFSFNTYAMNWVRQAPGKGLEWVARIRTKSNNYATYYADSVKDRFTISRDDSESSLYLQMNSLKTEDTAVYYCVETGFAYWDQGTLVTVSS VL: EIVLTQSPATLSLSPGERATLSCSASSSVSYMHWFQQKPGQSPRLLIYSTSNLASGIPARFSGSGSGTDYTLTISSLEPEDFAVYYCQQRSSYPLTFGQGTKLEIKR", "measurement.units": "M⁻¹ s⁻¹", "kon": "1.78e+07"}
{"binder": "Hu95-51yk (antibody, human IgG1, kappa, V domains shown) VH: EVQLVQSGAEVKKPGASVKVSCRASGFTFTNYAIHWVKQAPGQRLEWMGLVYPYTGGTAYNQKFKDKVTLTFDTSASTAYMELSSLRSEDTAVYYCARWGMIPGTNSYFDVWGQGTTVTVSS VL: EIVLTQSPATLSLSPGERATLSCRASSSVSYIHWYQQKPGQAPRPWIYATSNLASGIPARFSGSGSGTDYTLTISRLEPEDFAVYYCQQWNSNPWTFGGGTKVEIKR", "measurement.units": "M⁻¹ s⁻¹", "kon": "2.84e+07"}
{"binder": "Hu95-42wk (antibody, human IgG1, kappa, V domains shown) VH: EVQLVQSGAEVKKPGASVKVSCKASGFTFTNYDIHWVKQAPGQRLEWIGLVYPYNGGTAYNQKFKDKATLTFDTSASTAYMELSSLRSEDTAVYYCARWGLIPGTTSYFDVWGQGTTVTVSS VL: EIVLTQSPATLSLSPGERATLSCRASSSVSYIHWYQQKPGQSPRPWIYATSNLASGVPARFSGSGSGTSYTLTISRLEPEDFAVYYCQQWNSNPWTFGGGTKVEIKR", "measurement.units": "M⁻¹ s⁻¹", "kon": "3.32e+06"}
{"binder": "Hu164-69wl (antibody, human IgG1, lambda, V domains shown) VH: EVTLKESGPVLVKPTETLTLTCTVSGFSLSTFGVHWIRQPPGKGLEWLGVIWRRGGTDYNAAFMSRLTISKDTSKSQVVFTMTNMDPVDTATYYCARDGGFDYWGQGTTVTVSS VL: ESVVTQPPSVSGAPGQRVTISCRSSIGAVTTSNYANWVQQLPGTAFKGLIGGTSNRAPGVPDRFSGSKSGTSASLAITGLQAEDEADYYCALWYSTHYVFGGGTKLTVLG", "measurement.units": "M⁻¹ s⁻¹", "kon": "8.71e+07"}
